- measured_target: Bromodomain-containing protein 4 (Homo sapiens)
- experiment_summary: Competitive binding affinity to human partial length BRD4 (BD1,2) (N44 to E460 residues) expressed in bacterial expression system by BROMOscan assay
assay_readout: Kd (µM)

These solved cases illustrate the format of a correct answer.
Cn1cc(-c2ccc3nc(-c4cnn(CC(C)(C)O)c4)nc(N4CCOC[C@@H]4c4ccc(F)cc4)c3c2)ccc1=O    0.16
Cc1noc(C)c1-c1ccc2nc(N3CCC4(CCN(C)C4=O)CC3)nc(N3CCOC[C@@H]3c3ccccc3)c2c1    0.11

I: Cc1noc(C)c1-c1ccc2nc(C(=O)NC3CCN(C)CC3)nc(N3CCOC[C@@H]3c3ccccc3)c2c1
II: CNC(=O)C1CCN(c2nc(N3CCOC[C@@H]3c3ccccc3)c3cc(-c4c(C)noc4C)ccc3n2)CC1
Among I and II , whose measured Kd is the smaller figure? In your reply, give the label of the chosen option.
II
(II: 0.073 µM, I: 0.21 µM)

---

- experiment_summary: Cmax in CD-1 mouse at 10 mg/kg, po
- Format: ADME, organism-based
- Design: route oral, dose 10 mg/kg
- condition_info: CD-1, mouse, in vivo, read-out: Cmax
assay_readout: Cmax (ng/mL)

Cc1cc(-c2ccc3nc(-c4cnn(CC(C)(C)O)c4)nc(N4CCOC[C@@H]4c4ccc(F)cc4)c3c2)cn(C)c1=O    3180

a: Cc1noc(C)c1-c1ccc2nc(-c3cnn(CC(C)(C)O)c3)nc(N3CCOC[C@@H]3c3ccc(Cl)cc3)c2c1
b: Cc1noc(C)c1-c1ccc2nc(-c3cnn(CC(C)(C)O)c3)nc(N3CCN(S(C)(=O)=O)C[C@@H]3c3ccccc3)c2c1
Higher Cmax between a and b ? Kindly state the label of the option you pick.
b
(b: 2670 ng/mL, a: 1120 ng/mL)

---

- measured_target: Bromodomain-containing protein 3 (Homo sapiens)
- Sequence (Q15059 whole entry, the tested form may be a part): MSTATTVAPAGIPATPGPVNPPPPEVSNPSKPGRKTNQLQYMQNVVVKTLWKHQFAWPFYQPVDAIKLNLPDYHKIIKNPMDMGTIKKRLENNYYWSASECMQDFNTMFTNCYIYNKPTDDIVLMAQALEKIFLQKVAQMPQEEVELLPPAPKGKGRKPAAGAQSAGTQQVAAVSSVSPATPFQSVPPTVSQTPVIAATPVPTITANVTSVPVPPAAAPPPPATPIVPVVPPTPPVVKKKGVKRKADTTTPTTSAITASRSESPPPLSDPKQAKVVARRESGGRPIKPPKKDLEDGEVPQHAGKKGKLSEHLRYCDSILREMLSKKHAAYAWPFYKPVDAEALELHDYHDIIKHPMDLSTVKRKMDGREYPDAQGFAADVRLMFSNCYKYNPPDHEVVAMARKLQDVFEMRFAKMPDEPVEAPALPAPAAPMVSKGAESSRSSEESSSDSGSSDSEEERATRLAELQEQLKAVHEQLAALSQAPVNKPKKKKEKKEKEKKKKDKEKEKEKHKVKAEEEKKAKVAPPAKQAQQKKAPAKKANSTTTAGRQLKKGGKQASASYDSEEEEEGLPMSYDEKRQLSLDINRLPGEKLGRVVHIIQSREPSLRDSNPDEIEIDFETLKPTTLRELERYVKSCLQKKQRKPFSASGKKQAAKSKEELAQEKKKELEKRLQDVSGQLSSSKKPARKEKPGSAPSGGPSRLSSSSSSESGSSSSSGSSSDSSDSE
- experiment_summary: Binding affinity to human partial length BRD3 (BD1) (P24 to E144 residues) expressed in bacterial expression system by BROMOscan assay
assay_readout: Kd (nM)
Just the number please, in nM, no unit attached.

Field Kd (entry Cc1noc(C)c1-c1ccc2nc(-c3cnn(CC(C)(C)O)c3)nc(N3CCOC[C@@H]3c3ccccc3)c2c1 ) reads 11

---

- experiment_summary: Oral bioavailability in CD-1 mouse at 10 mg/kg
- Format: ADME, organism-based
- condition_info: CD-1, mouse, in vivo
assay_readout: bioavailability (%)

Cc1cc(-c2ccc3nc(-c4cnn(CC(C)(C)O)c4)nc(N4CCOC[C@@H]4c4ccc(F)cc4)c3c2)cn(C)c1=O    123
Cn1cc(-c2ccc3nc(-c4cnn(CC(C)(C)O)c4)nc(N4CCOC[C@@H]4c4ccccc4)c3c2)ccc1=O    118
CC(=O)N1CCN(c2nc(-c3cnn(CC(C)(C)O)c3)nc3ccc(-c4c(C)noc4C)cc23)[C@@H](c2ccccc2)C1    95
Cn1cc(-c2ccc3nc(-c4cnn(CC(C)(C)O)c4)nc(N4CCOC[C@@H]4c4cccs4)c3c2)ccc1=O    83
Cc1noc(C)c1-c1ccc2nc(-c3cnn(CC(C)(C)O)c3)nc(N3CCOC[C@@H]3c3ccc(F)cc3)c2c1    90

---

- experiment_summary: Plasma clearance in CD-1 mouse at 2 mg/kg, iv
- Assay type: ADME, organism-based
assay_readout: clearance (mL/min/kg)

Cn1cc(-c2ccc3nc(-c4cnn(CC(C)(C)O)c4)nc(N4CCOC[C@@H]4c4ccccc4)c3c2)ccc1=O    12.3

I: Cc1noc(C)c1-c1ccc2nc(-c3cnn(CC(C)(C)O)c3)nc(N3CCOC[C@@H]3c3ccc(Cl)cc3)c2c1
II: Cc1cc(-c2ccc3nc(-c4cnn(CC(C)(C)O)c4)nc(N4CCOC[C@@H]4c4ccccc4)c3c2)cn(C)c1=O
Hi there, can you help? I need to know whether I or II has lower measured clearance. Field: selected label. Fill in the label of the entry you choose.
II
(II: 3.8 mL/min/kg, I: 5.9 mL/min/kg)

A: Cn1cc(-c2ccc3nc(-c4cnn(CC(C)(C)O)c4)nc(N4CCOC[C@@H]4c4cccs4)c3c2)ccc1=O
B: Cc1noc(C)c1-c1ccc2nc(-c3cnn(CC(C)(C)O)c3)nc(N3CCOC[C@@H]3C3CC3)c2c1
I'm curious whether A or B has the smaller clearance number. Which is it? Indicate which entry you chose by stating its label.
A
(A: 6.4 mL/min/kg, B: 10.1 mL/min/kg)

a: Cc1noc(C)c1-c1ccc2nc(-c3cnn(CC(C)(C)O)c3)nc(N3CCOC[C@@H]3c3cccs3)c2c1
b: Cc1cc(-c2ccc3nc(-c4cnn(CC(C)(C)O)c4)nc(N4CCOC[C@@H]4c4ccc(F)cc4)c3c2)cn(C)c1=O
Determine, for a and b , which has the greater value of clearance. Give the chosen item's label as your response.
a
(a: 7.3 mL/min/kg, b: 4.5 mL/min/kg)
